# TARGET OF ASSAY: hURAT1 (Homo sapiens)
# Construct: expressed in transfected cells; host or cells: HEK293 (human kidney cell line), transient transfection with Fugene6
# Sequence (Q96S37 1-553): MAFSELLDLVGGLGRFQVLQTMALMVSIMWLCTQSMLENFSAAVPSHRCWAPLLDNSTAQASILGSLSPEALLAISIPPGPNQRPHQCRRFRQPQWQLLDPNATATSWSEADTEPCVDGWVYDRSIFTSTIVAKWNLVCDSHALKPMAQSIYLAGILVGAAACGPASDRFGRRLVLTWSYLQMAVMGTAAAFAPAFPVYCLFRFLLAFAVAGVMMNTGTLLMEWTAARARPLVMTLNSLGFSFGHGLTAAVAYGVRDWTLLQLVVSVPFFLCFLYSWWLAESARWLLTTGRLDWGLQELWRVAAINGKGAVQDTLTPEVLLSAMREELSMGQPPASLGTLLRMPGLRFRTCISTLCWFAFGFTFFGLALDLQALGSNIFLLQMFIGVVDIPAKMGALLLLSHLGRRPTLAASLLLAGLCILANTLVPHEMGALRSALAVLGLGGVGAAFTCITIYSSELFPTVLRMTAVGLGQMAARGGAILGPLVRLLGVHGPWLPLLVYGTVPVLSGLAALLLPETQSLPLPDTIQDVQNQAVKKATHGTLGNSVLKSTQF
# ASSAY PROTOCOL: Test for inhibiting urate reuptake activity via hURAT1 (uric acid transport assay in hURAT1-overexpressed HEK293 cell line)
# Assay type: cell-based
# MEASUREMENT CONTEXT: hURAT1-overexpressed HEK293 cells, [14C]-uric acid uptake, 100 μM uric acid; read-out: IC50 (μM) hURAT, level of uric acid reuptake inhibition
Where a name gives a salt, the structure may show the parent alone.
ENDPOINT: IC50 (µM)

Use these answered entries as a reference point.
[[record]]
molecule = "O=C(c1cc(Br)c(O)c(Br)c1)N1CCOc2ncc(-c3ccccc3)cc21"
target_of_assay = "hURAT1 (Homo sapiens)"
endpoint = "IC50"
result_unit = "µM"
number = 0.034

[[record]]
molecule = "O=C(c1cc(Br)c(O)c(Br)c1)N1CCOc2c1cnc1ccccc21"
target_of_assay = "hURAT1 (Homo sapiens)"
endpoint = "IC50"
result_unit = "µM"
number = 0.0488

[[record]]
molecule = "O=C(c1cc(Cl)c(O)c([N+](=O)[O-])c1)N1CCOc2cnccc21"
target_of_assay = "hURAT1 (Homo sapiens)"
endpoint = "IC50"
result_unit = "µM"
number = 0.175

[[record]]
molecule = "O=C(c1cc(F)c(O)c(F)c1)N1CCOc2ccncc21"
target_of_assay = "hURAT1 (Homo sapiens)"
endpoint = "IC50"
result_unit = "µM"
number = 0.235

[[record]]
molecule = "O=C(c1cc(Br)c(O)c(Br)c1)N1CCOc2ncncc21"
target_of_assay = "hURAT1 (Homo sapiens)"
endpoint = "IC50"
result_unit = "µM"
number = 0.128

[[record]]
molecule = "O=C(c1ccc(O)c(Cl)c1)N1CCOc2ccncc21 [Compound 10]"
target_of_assay = "hURAT1 (Homo sapiens)"
endpoint = "IC50"
result_unit = "µM"
number = 0.334

[[record]]
molecule = "O=C(c1ccc(O)c(C(F)(F)F)c1)N1CCOc2ccncc21"
target_of_assay = "hURAT1 (Homo sapiens)"
endpoint = "IC50"
result_unit = "µM"
number = 0.0408

[[record]]
molecule = "O=C(c1cc(Br)c(O)c(Br)c1)N1CCOc2ncc(-c3ccoc3)cc21"
target_of_assay = "hURAT1 (Homo sapiens)"
endpoint = "IC50"
result_unit = "µM"
number = 0.0562

[[record]]
molecule = "Br.O=C(c1cc(Cl)c(O)c([N+](=O)[O-])c1)N1CCOc2cnccc21"
target_of_assay = "hURAT1 (Homo sapiens)"
endpoint = "IC50"
result_unit = "µM"
number = 1

[[record]]
molecule = "Br.O=C(c1cc(Cl)c(O)c(Cl)c1)N1CCOc2ccncc21"
target_of_assay = "hURAT1 (Homo sapiens)"
endpoint = "IC50"
result_unit = "µM"
number = 0.337


(A) COc1c(Br)cc(C(=O)N2CCOc3ccncc32)cc1Br
(B) O=C(c1cc(Br)c(O)c(Br)c1)N1CCOc2ncc(-c3cncc4ccccc34)cc21
(C) O=C(c1cc(Br)c(O)c(Br)c1)N1CCOc2ncc(-c3cccnc3)cc21
(D) Cc1cnc2c(c1)N(C(=O)c1ccc(O)c(C(F)(F)F)c1)CCO2
(E) O=C(c1cc(Br)c(O)c(Br)c1)N1CCOc2ncc(C(F)(F)F)cc21
Prompt: List the 5 entries from lowest IC50 to highest IC50 value. // respond by listing labels in the order requested
Completion: B, E, C, D, A
(B: 0.002 µM, E: 0.0043 µM, C: 0.0103 µM, D: 0.0331 µM, A: 0.136 µM)

(A) O=C(c1ccc(O)c(Br)c1)N1CCOc2ccncc21 [Compound 38]
(B) O=C(c1ccc(O)c(Br)c1)N1CCOc2ccncc21 [Compound 11]
Prompt: Between A and B , which one has the lower reported IC50 value? Identify your selection by its label.
Completion: A
(A: 0.0964 µM, B: 0.175 µM)

(1) O=C(c1cc(Cl)c(O)c([N+](=O)[O-])c1)N1CCOc2ccncc21
(2) O=C(c1cc(Br)c(O)c(Br)c1)N1CCOc2ccnc(Cl)c21
(3) Cc1cnc2c(c1)N(C(=O)c1cc(Br)c(O)c(Br)c1)CCO2
Prompt: Order the 3 molecules from highest to lowest IC50. // respond by listing labels in the order requested
Completion: 1, 2, 3
(1: 0.126 µM, 2: 0.028 µM, 3: 0.012 µM)

(A) Oc1c(Br)cc(C(=S)N2CCOc3ccncc32)cc1Br [Compound 51]
(B) N#Cc1ccc(-c2cnc3c(c2)N(C(=O)c2cc(Br)c(O)c(Br)c2)CCO3)cc1
Prompt: Which has the higher IC50, A or B ? Identify your selection by its label.
Completion: A
(A: 0.0115 µM, B: 0.003 µM)

(a) CC1(C)CN(C(=O)c2cc(Br)c(O)c(Br)c2)c2cnccc2O1
(b) COc1c(Br)cc(C(=O)N2CCOc3ncc(C(F)(F)F)cc32)cc1Br
(c) O=C(c1cc(Br)c(O)c(Br)c1)N1CCOc2ncc(Br)cc21
(d) COc1c(Br)cc(C(=O)N2CCOc3cnccc32)cc1Br
Prompt: Order the 4 molecules from highest to lowest IC50. // respond by listing labels in the order requested
Completion: a, d, b, c

(I) CC(=O)c1ccc(-c2cnc3c(c2)N(C(=O)c2cc(Br)c(O)c(Br)c2)CCO3)cc1
(II) O=C(c1cc(Br)c(O)c(Br)c1)N1CCOc2ncc(-c3ccc(C(F)(F)F)cc3)cc21
(III) COc1c(Br)cc(C(=O)N2CCOc3ncc(-c4cccc([N+](=O)[O-])c4)cc32)cc1Br
(IV) O=C(c1ccc(O)c(Cl)c1)N1CCOc2ccncc21 [Compound 37]
Prompt: Order the 4 molecules from highest to lowest IC50. // respond by listing labels in the order requested
Completion: III, IV, II, I
(III: 0.311 µM, IV: 0.212 µM, II: 0.0197 µM, I: 0.0078 µM)

(A) O=C(c1cc(Br)c(O)c(Br)c1)N1CCOc2ncc(C3CC3)cc21
(B) Oc1c(Br)cc(C(=S)N2CCOc3ccncc32)cc1Br [Compound 74, trifluoroacetic acid salt]
(C) COc1c(Br)cc(C(=O)N2CCOc3ncc(C)cc32)cc1Br
Prompt: List the 3 entries from lowest IC50 to highest IC50 value. // respond by listing labels in the order requested
Completion: B, A, C
(B: 0.006 µM, A: 0.02 µM, C: 0.036 µM)

The measurements presented in this section are drawn from patent US8394792B2.
